# credit: PubChem BioAssay AID624129

Listed below: pIC50 values for each entry.
# MEASURED_ON: C-X-C chemokine receptor type 6 (Homo sapiens) (UniProt O00574)
# Sequence (O00574 whole entry, looked up): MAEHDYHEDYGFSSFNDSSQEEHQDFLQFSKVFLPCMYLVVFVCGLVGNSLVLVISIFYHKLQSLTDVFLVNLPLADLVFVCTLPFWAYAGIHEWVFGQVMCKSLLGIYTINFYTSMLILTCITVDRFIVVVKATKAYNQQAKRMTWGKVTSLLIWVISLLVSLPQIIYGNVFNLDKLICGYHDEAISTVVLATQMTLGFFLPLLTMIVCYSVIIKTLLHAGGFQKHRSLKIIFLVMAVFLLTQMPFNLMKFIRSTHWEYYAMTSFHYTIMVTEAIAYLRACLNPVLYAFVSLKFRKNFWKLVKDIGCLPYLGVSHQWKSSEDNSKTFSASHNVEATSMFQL
# TEST_SUMMARY: potency against CXCR6 with APJ panel – cell-based, beta-arrestin, DiscoveRx, uHTS hits, dose response (AID 624129)
# RUN_PARAMETERS: CXCR6 beta-arrestin (DiscoveRx) antagonist cell assay, CXCR6, run 2, dose range 1
pIC50: −log10 of the molar value.

>  <COMPOUND>
CCCC1CCC(=NNC(=S)NCCc2ccccc2)CC1 (configuration not stated)

>  <VALUE_QUALIFIER>
<

>  <pIC50>
4.10

$$$$
>  <COMPOUND>
COc1ccc(C)c(-n2c(=O)n(Cc3ccccc3)c(=O)c3[nH]cnc32)c1

>  <VALUE_QUALIFIER>
=

>  <pIC50>
4.85

$$$$
>  <COMPOUND>
COc1ccc(OC)c(/C=C/c2ccc3cccc(O)c3n2)c1

>  <VALUE_QUALIFIER>
=

>  <pIC50>
5.28

$$$$
>  <COMPOUND>
Nc1cc(Cl)c2nonc2c1[N+](=O)[O-]

>  <VALUE_QUALIFIER>
=

>  <pIC50>
5.14

$$$$
>  <COMPOUND>
Cc1ccc(S(=O)(=O)c2ccc([N+](=O)[O-])o2)cc1

>  <VALUE_QUALIFIER>
<

>  <pIC50>
4.10

$$$$
>  <COMPOUND>
O=C(Nc1nc(-c2ccccn2)cs1)Nc1ccc(F)cc1F

>  <VALUE_QUALIFIER>
=

>  <pIC50>
4.94

$$$$
>  <COMPOUND>
Oc1c(Cl)cc(Cl)c2cccnc12

>  <VALUE_QUALIFIER>
=

>  <pIC50>
5.41

$$$$
>  <COMPOUND>
CN(C)S(=O)(=O)c1cccc(NC(=O)CSc2cccc3cccnc23)c1

>  <VALUE_QUALIFIER>
=

>  <pIC50>
4.56

$$$$
>  <COMPOUND>
Cc1ccc(-c2oc3ccccc3c(=O)c2O)cc1

>  <VALUE_QUALIFIER>
=

>  <pIC50>
5.18

$$$$
>  <COMPOUND>
Fc1ccc(Sc2nc(-c3ccccc3)nnc2C(F)(F)F)cc1

>  <VALUE_QUALIFIER>
=

>  <pIC50>
4.56

$$$$
>  <COMPOUND>
Cc1ccc2c(c1)C1CN(C)CCC1N2C(=S)NC(=O)c1ccc(Br)cc1 (configuration not stated)

>  <VALUE_QUALIFIER>
=

>  <pIC50>
4.74

$$$$
>  <COMPOUND>
C=C1C(=O)OC2C1CCC(C)=C1C(=O)C3OC3(C)C12 (configuration not stated)

>  <VALUE_QUALIFIER>
=

>  <pIC50>
5.01

$$$$
>  <COMPOUND>
O=C(Nc1nnc(-c2cccs2)o1)c1cccc(C(F)(F)F)c1

>  <VALUE_QUALIFIER>
<

>  <pIC50>
4.10

$$$$
>  <COMPOUND>
CC(Oc1cccc(Cl)c1)C(=O)Nc1nc(-c2ccccn2)cs1 (configuration not stated)

>  <VALUE_QUALIFIER>
=

>  <pIC50>
5.10

$$$$
>  <COMPOUND>
CCC(=O)OCCNc1cc(Sc2nccn2C)c2nonc2c1[N+](=O)[O-]

>  <VALUE_QUALIFIER>
=

>  <pIC50>
5.32

$$$$
>  <COMPOUND>
N#Cc1c(C#N)c(SSc2c(C#N)c(C#N)c(N)n2-c2ccccc2)n(-c2ccccc2)c1N

>  <VALUE_QUALIFIER>
<

>  <pIC50>
4.10

$$$$
>  <COMPOUND>
CC(=O)Nc1ccc(NC(=O)c2nc(S(=O)(=O)Cc3cccc(C)c3)ncc2Cl)cc1

>  <VALUE_QUALIFIER>
=

>  <pIC50>
5.31

$$$$
>  <COMPOUND>
N#CC(C#N)=C1C=CC=CN1/C(=C\c1ccco1)C(=O)c1ccccc1

>  <VALUE_QUALIFIER>
=

>  <pIC50>
5.44

$$$$
>  <COMPOUND>
Cc1ccc(C(=O)/C=C/C(=O)c2ccc(C)cc2)cc1

>  <VALUE_QUALIFIER>
<

>  <pIC50>
4.10

$$$$
>  <COMPOUND>
C/C(=N\NC(=O)Cn1c(-c2ccccn2)nc2ccccc21)c1ccccc1

>  <VALUE_QUALIFIER>
=

>  <pIC50>
4.53

$$$$
>  <COMPOUND>
S=C(N/N=C/c1ccccc1)N1CCOCC1

>  <VALUE_QUALIFIER>
=

>  <pIC50>
5.07

$$$$
>  <COMPOUND>
C/C(=N\NC(=O)c1cc(-c2cccs2)nc2ccccc12)c1ccccn1

>  <VALUE_QUALIFIER>
=

>  <pIC50>
5.18

$$$$
>  <COMPOUND>
COc1cccc(-n2nc(C#N)c(Cl)cc2=O)c1

>  <VALUE_QUALIFIER>
=

>  <pIC50>
4.86

$$$$
>  <COMPOUND>
CCOc1ccccc1NC(=O)c1nc(S(=O)(=O)Cc2ccccc2)ncc1Cl

>  <VALUE_QUALIFIER>
=

>  <pIC50>
4.94

$$$$
>  <COMPOUND>
COc1cc(/C=C/c2ccc3cccc(O)c3n2)ccc1O

>  <VALUE_QUALIFIER>
=

>  <pIC50>
4.88

$$$$
>  <COMPOUND>
O=C(Nc1nc2c(F)cc(F)cc2s1)c1ccccn1

>  <VALUE_QUALIFIER>
=

>  <pIC50>
5.91

$$$$
>  <COMPOUND>
O=[N+]([O-])c1ccc(Sc2cccc3cccnc23)c([N+](=O)[O-])c1

>  <VALUE_QUALIFIER>
=

>  <pIC50>
5.33

$$$$
>  <COMPOUND>
Fc1ccc(NC(=S)Nc2nccs2)cc1

>  <VALUE_QUALIFIER>
=

>  <pIC50>
4.85

$$$$
>  <COMPOUND>
COc1ccccc1C(=O)NNC(=S)NC(=O)c1cccs1

>  <VALUE_QUALIFIER>
=

>  <pIC50>
4.64

$$$$
>  <COMPOUND>
O=S(=O)(/C=C/C=C/S(=O)(=O)c1ccccc1)c1ccccc1

>  <VALUE_QUALIFIER>
=

>  <pIC50>
5.06

$$$$
>  <COMPOUND>
CC(C)(C)C(=O)NC(=S)NNC(=O)c1sc2ccccc2c1Cl

>  <VALUE_QUALIFIER>
<

>  <pIC50>
4.10

$$$$
>  <COMPOUND>
O=C(Nc1nccs1)c1sc2cc(Cl)ccc2c1Cl

>  <VALUE_QUALIFIER>
=

>  <pIC50>
4.34

$$$$
>  <COMPOUND>
COc1ccc(NC(=O)/C(Cl)=C(/Cl)S(=O)Cc2ccc(Cl)cc2)cn1 (configuration not stated)

>  <VALUE_QUALIFIER>
<

>  <pIC50>
4.10

$$$$
>  <COMPOUND>
COc1ccc(-c2csc(Cc3nc(O)cs3)n2)cc1

>  <VALUE_QUALIFIER>
=

>  <pIC50>
5.33

$$$$
>  <COMPOUND>
O=C1C=CC(=O)N1c1ccccc1N1C(=O)C=CC1=O

>  <VALUE_QUALIFIER>
<

>  <pIC50>
4.10

$$$$
>  <COMPOUND>
CCC1CCCCN1S(=O)(=O)c1ccc(NC(=O)c2nc(S(C)(=O)=O)ncc2Cl)cc1 (configuration not stated)

>  <VALUE_QUALIFIER>
=

>  <pIC50>
5.14

$$$$
>  <COMPOUND>
O=[N+]([O-])c1c(NCCCO)cc(Sc2ccc(Cl)cc2)c2nonc12

>  <VALUE_QUALIFIER>
<

>  <pIC50>
4.10

$$$$
>  <COMPOUND>
CCOc1ccc(NCC(=O)c2ccc(C)cc2)cc1

>  <VALUE_QUALIFIER>
<

>  <pIC50>
4.10

$$$$
>  <COMPOUND>
COc1cc(/C=C/c2ccc3cccc(O)c3n2)cc(OC)c1OC

>  <VALUE_QUALIFIER>
=

>  <pIC50>
5.39

$$$$
>  <COMPOUND>
C=CS(=O)(=O)c1ccc(Oc2ccc(S(=O)(=O)C=C)cc2)cc1

>  <VALUE_QUALIFIER>
=

>  <pIC50>
4.91

$$$$
>  <COMPOUND>
O=C(OCn1ncc(Cl)c(Cl)c1=O)c1cccc(C(F)(F)F)c1

>  <VALUE_QUALIFIER>
=

>  <pIC50>
4.72

$$$$
>  <COMPOUND>
COc1ccccc1-c1cc(C(F)(F)F)nc(S(=O)(=O)CCCC(=O)NCc2ccc(F)cc2)n1

>  <VALUE_QUALIFIER>
<

>  <pIC50>
4.10

$$$$
>  <COMPOUND>
CN(C)C(=O)CSc1cccc2cccnc12

>  <VALUE_QUALIFIER>
<

>  <pIC50>
4.10

$$$$
>  <COMPOUND>
C=C1CC2(OC1=O)c1ccccc1CCc1ccccc12

>  <VALUE_QUALIFIER>
=

>  <pIC50>
4.80

$$$$
>  <COMPOUND>
Cc1ccsc1/C=C/c1ccc2cccc(O)c2n1

>  <VALUE_QUALIFIER>
=

>  <pIC50>
5.06

$$$$
>  <COMPOUND>
CS(=O)(=O)c1sc(C#N)c2c1C(=O)CC(c1ccccc1)C2 (configuration not stated)

>  <VALUE_QUALIFIER>
=

>  <pIC50>
4.49

$$$$
>  <COMPOUND>
Cn1c(=O)c([N+](=O)[O-])c(Cl)c2ccccc21

>  <VALUE_QUALIFIER>
<

>  <pIC50>
4.10

$$$$
